System: E. coli IH3080
test-protocol: Sensitization to rifampin: well diffusion growth inhibition on LB plates containing rifampin
Type: cell-based, Escherichia coli
condition-summary: 4 μg of compound, rifampin 0 μg/ml
experimental-readout: Antibacterial activity in the presence of rifampin (growth inhibition area around a well) (square millimeters)
API: value field is a number in square millimeters; no unit string.

Can you look up the measured Antibacterial activity in the presence of rifampin (growth inhibition area around a well) of MHA-Dab-Thr-Dab-cy[Dab-Dab-DPhe-Leu-Abu-Abu-Thr-] [NAB 721] for me?
0

Can you look up the measured Antibacterial activity in the presence of rifampin (growth inhibition area around a well) of OA-Thr-DSer-cy[Dab-Dab-DPhe-Thr-Dab-Dab-Thr-] [NAB 734] for me?
113

Can you look up the measured Antibacterial activity in the presence of rifampin (growth inhibition area around a well) of OA-Thr-Dab-cy[Dab-Dab-DPhe-Leu-Abu-Dab-Thr-] [NAB 716] for me?
13

Can you look up the measured Antibacterial activity in the presence of rifampin (growth inhibition area around a well) of DA-cy[Dab-Dab-DPhe-Leu-Dab-Dab-Thr-] [NAB 736] for me?
0

Can you look up the measured Antibacterial activity in the presence of rifampin (growth inhibition area around a well) of MHA-Thr-Abu-cy[Dab-Dab-DPhe-Leu-Dab-Dab-Thr-] [NAB 706] for me?
5

Can you look up the measured Antibacterial activity in the presence of rifampin (growth inhibition area around a well) of OA-Thr-Abu-cy[Dab-Dab-DPhe-Leu-Dab-Dab-Leu-] [NAB 719] for me?
7

Can you look up the measured Antibacterial activity in the presence of rifampin (growth inhibition area around a well) of OA-Thr-Abu-cy[Dab-Abu-DPhe-Leu-Dab-Dab-Thr-] [NAB 710] for me?
0

Can you look up the measured Antibacterial activity in the presence of rifampin (growth inhibition area around a well) of OA-Thr-DThr-cy[Dab-Dab-DPhe-Thr-Dab-Dab-Thr-] [NAB 737] for me?
133

Can you look up the measured Antibacterial activity in the presence of rifampin (growth inhibition area around a well) of OA-Thr-Dab-cy[Dab-Abu-DPhe-Leu-Dab-Dab-Thr-] [NAB 715] for me?
0
